# Study target: UniProtKB Q92831
# Method summary: KAT2B acetyltransferase biochemical assay (RapidFire mass spectrometry, AcCoA to CoA)
# Assay conditions: read-out: KAT2B Ki at 1 μM AcCoA; 1 μM AcCoA, 5 μM H3 1-21 peptide, 0.5 nM KAT2B, 90-minute reaction
Quantity measured: pKi
Friendly reminder that pKi comes from taking -log10 of the concentration in mol/L.

Challenge: Requested field: pKi. Item: CCc1c(F)cccc1-c1cc(C(C)(C)C(=O)NS(=O)(=O)C(C)C)ccc1O[C@@H]1CC[C@@H](NC(=O)[C@@]2(F)CNC3(CCCC3)C2)C1 (single isomer, unassigned)
Response given: 9.33

Challenge: Reported pKi for CC(C)(C(=O)NS(C)(=O)=O)c1ccc(O[C@@H]2CC[C@@H](NC(=O)[C@@]3(F)CNC4(CCCC4)C3)C2)c(-c2cccc(F)c2C2CCC2)c1 (single isomer, unassigned) [Example C16] : what is it?
Response given: 10.22

Challenge: # input compound: CC1(C)C[C@](F)(C(=O)N[C@@H]2CC[C@@H](Oc3ccc(C(C)(C)C(=O)NS(C)(=O)=O)cc3-c3cccc(F)c3C3CCC3)C2)CN1 (single isomer, unassigned) ; wanted: its pKi
Response given: 7.83

Challenge: Please report the recorded pKi for CC(C)(C(=O)NS(C)(=O)=O)c1ccc(O[C@@H]2CC[C@@H](NC(=O)[C@@]3(F)CNC4(CCCC4)C3)C2)c(-c2cccc(F)c2C2CCC2)c1 (single isomer, unassigned) [Example C4] .
Response given: 9.85

Challenge: // lookup pKi for CN1CC(C)(C)C[C@H]1C(=O)N[C@H]1C[C@H](Oc2ccc(C(=O)O)cc2-c2cccc(F)c2C2CCC2)C[C@H]1O (single isomer, unassigned)
Response given: 9.25

###

# Study target: KAT2A (Homo sapiens (Human), UniProt Q92830)
# Sequence (Q92830 whole entry): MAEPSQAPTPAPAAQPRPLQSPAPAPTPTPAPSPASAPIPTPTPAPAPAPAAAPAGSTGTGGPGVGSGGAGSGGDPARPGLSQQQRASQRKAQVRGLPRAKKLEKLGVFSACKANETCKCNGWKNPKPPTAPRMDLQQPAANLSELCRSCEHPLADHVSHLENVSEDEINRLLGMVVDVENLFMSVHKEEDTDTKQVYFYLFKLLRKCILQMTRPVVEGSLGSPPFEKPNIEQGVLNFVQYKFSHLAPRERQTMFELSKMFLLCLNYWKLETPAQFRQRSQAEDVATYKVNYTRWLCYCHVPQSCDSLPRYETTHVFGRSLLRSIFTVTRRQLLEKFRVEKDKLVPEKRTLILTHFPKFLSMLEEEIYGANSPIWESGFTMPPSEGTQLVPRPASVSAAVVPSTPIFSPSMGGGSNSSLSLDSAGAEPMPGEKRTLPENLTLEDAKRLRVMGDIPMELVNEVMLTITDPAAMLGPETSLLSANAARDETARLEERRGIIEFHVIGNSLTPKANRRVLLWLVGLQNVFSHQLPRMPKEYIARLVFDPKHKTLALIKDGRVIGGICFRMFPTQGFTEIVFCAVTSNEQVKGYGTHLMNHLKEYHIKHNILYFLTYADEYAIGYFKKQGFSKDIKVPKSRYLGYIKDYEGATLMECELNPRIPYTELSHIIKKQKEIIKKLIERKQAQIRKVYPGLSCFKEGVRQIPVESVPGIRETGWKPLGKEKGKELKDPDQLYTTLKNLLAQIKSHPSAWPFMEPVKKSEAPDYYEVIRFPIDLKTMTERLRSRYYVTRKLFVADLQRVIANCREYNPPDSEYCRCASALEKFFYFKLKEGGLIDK
# Method summary: KAT2A acetyltransferase biochemical assay (RapidFire mass spectrometry, AcCoA to CoA)
# Assay conditions: read-out: KAT2A Ki at 1 μM AcCoA, 5 μM H3 1-21 peptide, 0.5 nM KAT2A, 90-minute reaction
Quantity measured: Ki (nM)
Respond numerically; units are nM and should not be typed.

Challenge: Requested read-out: Ki. Entry: CC(C)S(=O)(=O)NC(=O)c1cccc(O[C@@H]2CC[C@@H](NC(=O)[C@@]3(F)CNC4(CCC4)C3)C2)c1-c1cccc(F)c1C1CCC1 (atropisomer, axis not shown)
Response given: 13.7

Challenge: Which Ki reading was recorded for the molecule CC(C)(C(=O)NS(=O)(=O)N1CC(F)(F)C1)c1ccc(O[C@@H]2CC[C@@H](NC(=O)[C@]3(F)CNC4(CCC4)C3)C2)c(-c2cccc(F)c2C2CCC2)c1 (single isomer, unassigned) [Example B10] ?
Response given: 0.15

Challenge: Data request, read-out Ki, for CN1CC2(CCCC2)C[C@H]1C(=O)N[C@@H]1CC[C@@H](Oc2ccc(C(=O)O)cc2-c2ccccc2C2CCC2)C1 (single isomer, unassigned)
Response given: 926

###

# Study target: KAT2B (Homo sapiens (Human), UniProt Q92831)
# Sequence (Q92831 2-832): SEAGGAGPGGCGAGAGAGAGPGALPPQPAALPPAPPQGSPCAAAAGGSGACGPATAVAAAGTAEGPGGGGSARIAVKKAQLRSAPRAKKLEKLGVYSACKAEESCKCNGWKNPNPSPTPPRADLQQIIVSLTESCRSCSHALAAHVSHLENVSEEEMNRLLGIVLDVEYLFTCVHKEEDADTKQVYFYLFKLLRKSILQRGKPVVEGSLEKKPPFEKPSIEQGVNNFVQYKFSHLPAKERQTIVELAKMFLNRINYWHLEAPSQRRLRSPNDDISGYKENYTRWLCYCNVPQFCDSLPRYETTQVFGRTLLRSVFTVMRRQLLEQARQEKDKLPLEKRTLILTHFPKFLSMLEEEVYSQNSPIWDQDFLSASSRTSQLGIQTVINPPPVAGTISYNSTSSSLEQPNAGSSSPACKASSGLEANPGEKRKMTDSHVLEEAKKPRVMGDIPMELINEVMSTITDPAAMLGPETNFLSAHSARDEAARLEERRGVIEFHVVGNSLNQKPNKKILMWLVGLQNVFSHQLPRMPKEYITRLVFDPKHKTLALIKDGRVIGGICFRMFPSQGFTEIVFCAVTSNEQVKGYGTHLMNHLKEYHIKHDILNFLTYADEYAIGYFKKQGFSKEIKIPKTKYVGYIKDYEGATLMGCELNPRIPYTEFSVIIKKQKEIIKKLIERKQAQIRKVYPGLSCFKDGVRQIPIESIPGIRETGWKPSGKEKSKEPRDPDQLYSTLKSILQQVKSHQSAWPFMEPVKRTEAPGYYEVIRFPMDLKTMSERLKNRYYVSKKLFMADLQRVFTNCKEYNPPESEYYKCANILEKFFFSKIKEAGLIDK
# Method summary: KAT2B acetyltransferase biochemical assay (RapidFire mass spectrometry, AcCoA to CoA)
# Assay conditions: read-out: KAT2B Ki at 1 μM AcCoA; 1 μM AcCoA, 5 μM H3 1-21 peptide, 0.5 nM KAT2B, 90-minute reaction
Quantity measured: pKi
Interpret pKi as the negative base-10 log of the concentration measured in mol/L.

Challenge: Data request, read-out pKi, for CN1CC(C)(C)C[C@H]1C(=O)N[C@@H]1CC[C@@H](Oc2ccc(CC(=O)NS(=O)(=O)N(C)C)cc2-c2cccc(F)c2C2CCC2)C1 [Example E3]
Response given: 10.70

Challenge: // query pKi value for entry CC(C)(C(=O)O)c1ccc(O[C@@H]2CC[C@@H](NC(=O)[C@]3(F)CNC4(CCCC4)C3)C2)c(-c2cccc(F)c2C2CCC2)c1 (single isomer, unassigned) [Example A6]
Response given: 8.92

Challenge: What value of pKi has been recorded for this entry: CC1(C)C[C@@](F)(C(=O)N[C@@H]2CC[C@@H](Oc3ccc(C(C)(C)C(=O)NS(=O)(=O)N4CCC4)cc3-c3cccc(F)c3C3CCC3)C2)CN1 (single isomer, unassigned) [Example C7]
Response given: 10.40

Challenge: Which pKi is listed for Cn1cc(-c2ccc(O[C@@H]3CC[C@@H](NC(=O)[C@]4(F)CNC5(CCC5)C4)C3)c(-c3cccc(F)c3C3CCC3)c2)c(C(C)(C)C(=O)O)n1 (single isomer, unassigned) [Example J7] ?
Response given: 9.34

Challenge: Give its pKi value. Item: CCc1c(F)cccc1-c1cc(C(C)(C)C(=O)NS(C)(=O)=O)ccc1O[C@@H]1CC[C@@H](NC(=O)[C@@]2(F)CNC3(CCCC3)C2)C1 (single isomer, unassigned) [Example C27]
Response given: 9.28

###

# Study target: KAT2A (Homo sapiens (Human), UniProt Q92830)
# Method summary: KAT2A acetyltransferase biochemical assay (RapidFire mass spectrometry, AcCoA to CoA)
# Assay conditions: read-out: KAT2A Ki at 1 μM AcCoA, 5 μM H3 1-21 peptide, 0.5 nM KAT2A, 90-minute reaction
Exam item: assign 1 to entries whose Ki is below 0.2 nM and -1 to entries at or above 0.2 nM. Note that a value of exactly 0.2 nM receives -1.

Challenge: Quick check: does CC(C)S(=O)(=O)NC(=O)C(C)(C)c1cnc(O[C@@H]2CC[C@@H](NC(=O)[C@@]3(F)CNC4(CCC4)C3)C2)c(-c2cccc(F)c2C2CCC2)c1 have Ki under 0.2 nM?
Response given: 1

Challenge: hey, is Ki for CCc1c(F)cccc1-c1cc([C@@H](C)C(=O)NS(=O)(=O)C2(C)CC2)ccc1O[C@@H]1CC[C@@H](NC(=O)[C@@]2(F)CNC3(CCCC3)C2)C1 (single isomer, unassigned) [Example C87] lower than 0.2 nM or not?
Response given: 1

Challenge: Input O=C(O)Cc1ccc(OC[C@H]2C[C@H](NC(=O)[C@@]3(F)CNC4(CCC4)C3)C2)c(-c2cccc(F)c2C2CCC2)c1 (single isomer, unassigned) ; condition: Ki strictly below 0.2 nM. Does it hold?
Response given: -1

Challenge: Problem: For the compound CCS(=O)(=O)NC(=O)C(C)(C)c1ccc(O[C@@H]2CC[C@@H](NC(=O)[C@@]3(F)CNC4(CCCC4)C3)C2)c(-c2cccc(F)c2C2CCC2)c1 (single isomer, unassigned) [Example B20] , is Ki under 0.2 nM?
Response given: 1

Challenge: Here's an entry: CCc1c(F)cccc1-c1cc(C(C)(C)C(=O)NS(=O)(=O)C(C)C)ccc1O[C@@H]1CC[C@@H](NC(=O)[C@@]2(F)CNC3(CCCC3)C2)C1 (single isomer, unassigned) [Example C29] . Is its Ki below 0.2 nM?
Response given: 1

Challenge: I'd appreciate it if you could check whether CC1(C)CNC[C@](F)(C(=O)N[C@@H]2CC[C@@H](Oc3ccc(C(C)(C)C(=O)NS(C)(=O)=O)cc3-c3cccc(F)c3C3CCC3)C2)C1 (single isomer, unassigned) [Example C37] has Ki smaller than 0.2 nM.
Response given: 1

Challenge: Dear reviewer, please state whether CC(C)S(=O)(=O)NC(=O)C(C)(C)c1ccc(O[C@@H]2CC[C@@H](NC(=O)[C@@]3(F)CNCC(C)(C)C3)C2)c(-c2cccc(F)c2C2CCC2)c1 (single isomer, unassigned) [Example B29] has Ki strictly beneath 0.2 nM.
Response given: -1

Challenge: Could you please tell me whether Ki recorded for CC(C)(C(=O)NS(=O)(=O)C1CC1)c1ccc(O[C@@H]2CC[C@@H](NC(=O)[C@]3(F)CNC4(CCC4)C3)C2)c(-c2cccc(F)c2C2CCC2)c1 (single isomer, unassigned) [Example B12] is less than 0.2 nM?
Response given: 1

Challenge: Please check: Ki for CC(C)c1c(F)cccc1-c1cc(C(C)(C)C(=O)O)ccc1O[C@@H]1CC[C@@H](NC(=O)[C@@]2(F)CNC3(CCC3)C2)C1 (single isomer, unassigned) [Example A22] , strictly under 0.2 nM or not?
Response given: -1

Challenge: In the record for O=C(O)Cc1ccc(O[C@@H]2CC[C@@H](NC(=O)[C@@]3(F)CNC4(CCCC4)C3)C2)c(-c2cccc(F)c2C2CCC2)c1 (single isomer, unassigned) [Example A26] , is Ki less than 0.2 nM?
Response given: -1

###

# Study target: KAT2A (Homo sapiens (Human))
# Method summary: KAT2A acetyltransferase biochemical assay (RapidFire mass spectrometry, AcCoA to CoA)
# Assay conditions: read-out: KAT2A Ki at 1 μM AcCoA, 5 μM H3 1-21 peptide, 0.5 nM KAT2A, 90-minute reaction
pKi: −log10 of the molar value.
Binary call on pKi: condition met from 9 upward, condition not met beneath that.

Challenge: In plain terms: is recorded pKi at least 9 for CN1C[C@@](F)(C(=O)N[C@@H]2CC[C@@H](Oc3ccc(C(C)(C)C(=O)NS(C)(=O)=O)cc3-c3cccc(F)c3C3CCC3)C2)CC1(C)C (single isomer, unassigned) ?
Response given: condition not met

Challenge: hey, is pKi for this one >= 9? CC(C)S(=O)(=O)NC(=O)Cc1cccc(O[C@@H]2CC[C@@H](NC(=O)[C@@]3(F)CNC4(CCC4)C3)C2)c1-c1cccc(F)c1C1CCC1 (atropisomer, axis not shown) [Example I18]
Response given: condition not met

Challenge: Does the reported pKi for CN1CC(C)(C)C[C@H]1C(=O)N[C@@H]1CC[C@@H](Oc2cccc(CC(=O)NS(C)(=O)=O)c2-c2ccccc2C2CCC2)C1 (atropisomer, axis not shown) [Example I4] fall at or above the 9 mark?
Response given: condition not met

Challenge: Record CC(C)S(=O)(=O)NC(=O)C(C)(C)c1ccc(O[C@@H]2CC[C@@H](NC(=O)[C@@]3(F)CNC4(CCCC4)C3)C2)c(-c2cccc(F)c2C2CCC2)c1 (single isomer, unassigned) [Example B24] ; criterion: pKi no lower than 9. Met?
Response given: condition met

Challenge: Decide: pKi of CC(C)S(=O)(=O)NC(=O)C(C)(C)c1ccc(O[C@@H]2CC[C@@H](NC(=O)[C@@]3(F)CNCC(C)(C)C3)C2)c(-c2cccc(F)c2C2CCC2)c1 (single isomer, unassigned) [Example B30] >= 9?
Response given: condition met

Challenge: Check if pKi >= 9 (inclusive). Item: Cc1cc(NS(C)(=O)=O)n(-c2ccc(O[C@@H]3CC[C@@H](NC(=O)[C@@]4(F)CNC5(CCC5)C4)C3)c(-c3cccc(F)c3C3CCC3)c2)n1 (single isomer, unassigned)
Response given: condition met

Challenge: Quick check, pKi >= 9? CCc1c(F)cccc1-c1cc([C@@H](C)C(=O)NS(=O)(=O)C2(C)CC2)ccc1O[C@@H]1CC[C@@H](NC(=O)[C@@]2(F)CNC3(CCCC3)C2)C1 (single isomer, unassigned) [Example C85]
Response given: condition met

Challenge: Reported pKi at or above 9? CC(C)(C(=O)O)c1ccc(O[C@@H]2CC[C@@H](NC(=O)[C@@]3(F)CNC4(CCC4)C3)C2)c(-c2cccc(F)c2C2CCC2)c1
Response given: condition met

Challenge: Quick check: does CC1(C)C[C@](F)(C(=O)N[C@@H]2CC[C@@H](Oc3ccc(C(C)(C)C(=O)NS(C)(=O)=O)cc3-c3cccc(F)c3C3CCC3)C2)CN1 (single isomer, unassigned) have pKi greater than or equal to 9?
Response given: condition not met

Challenge: Check if pKi >= 9 (inclusive). Item: CCS(=O)(=O)NC(=O)Cc1ccc(O[C@@H]2CC[C@@H](NC(=O)[C@@]3(F)CNC4(CCC4)C3)C2)c(-c2cccc(F)c2C2CCC2)c1 (single isomer, unassigned)
Response given: condition not met

Challenge: Say whether CN1CC(C)(C)C[C@H]1C(=O)N[C@H]1C[C@H](COc2ccc(CC(=O)O)cc2-c2cccc(F)c2C2CCC2)C1 shows pKi of 9 or more.
Response given: condition not met

Challenge: Quick check, pKi >= 9? C[C@H](C(=O)O)c1ccc(O[C@@H]2CC[C@@H](NC(=O)[C@@]3(F)CNC4(CCC4)C3)C2)c(-c2cccc(F)c2C2CCC2)c1 (single isomer, unassigned) [Example A17]
Response given: condition not met
